Item-by-item account of pKd
experimentalTarget: T1, biotinylated V112E-PNT domain (ETV6 residues 43-135, V112E, with Avitag) (human, UniProt P41212 43-135, V112E, biotin on the Avitag (~50 to 95% biotinylated))
T1 construct: ETV6, human, residues 43-135 of V112E ETV6; also called biotinylated V112E-PNT domain ligand; V112E-PNT domain ligand; source: E. coli BL21 (λDE3) co-transformed with pET21a-BirA, purified (Ni-NTA, thrombin cleavage); not shown: His6, N-terminal, cleaved; Avitag, N-terminal, kept
T1 sequence (looked up): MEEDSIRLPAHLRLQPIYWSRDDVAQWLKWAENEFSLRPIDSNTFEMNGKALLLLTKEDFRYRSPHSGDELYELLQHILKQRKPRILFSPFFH
procedureDetails: SPR; biotinylated V112E-PNT domain ligand captured on streptavidin Sensor Chip SA, PNT domain analytes flowed; Biacore X100, 25 °C, HBS-EP+ (10 mM HEPES, 150 mM NaCl, 3 mM EDTA, 0.05% v/v Tween-20, pH 7.4); analyte 0.2-60 nM, re-run at 20-6000 nM if KD > 60 nM
cond: both partners purified
In plain terms, pKd is the concentration in mol/L turned into minus its base-10 logarithm.

Below, each entry is followed by its recorded pKd result.
E100A-A93D-PNT domain (domain or fragment, human, UniProt P41212 40-125, looked up, ETV6 PNT domain, human; source: E. coli BL21 (λDE3), purified (Ni-NTA, thrombin cleavage); not shown: His6, N-terminal, cleaved) ALRMEEDSIRLPAHLRLQPIYWSRDDVAQWLKWAENEFSLRPIDSNTFEMNGKDLLLLTKADFRYRSPHSGDVLYELLQHILKQRK ... 8.30
R80A-A93D-PNT domain (domain or fragment, human, UniProt P41212 40-125, looked up, ETV6 PNT domain, human; source: E. coli BL21 (λDE3), purified (Ni-NTA, thrombin cleavage); not shown: His6, N-terminal, cleaved) ALRMEEDSIRLPAHLRLQPIYWSRDDVAQWLKWAENEFSLAPIDSNTFEMNGKDLLLLTKEDFRYRSPHSGDVLYELLQHILKQRK ... 7.49
P107A-A93D-PNT domain (domain or fragment, human, UniProt P41212 40-125, looked up, ETV6 PNT domain, human; source: E. coli BL21 (λDE3), purified (Ni-NTA, thrombin cleavage); not shown: His6, N-terminal, cleaved) ALRMEEDSIRLPAHLRLQPIYWSRDDVAQWLKWAENEFSLRPIDSNTFEMNGKDLLLLTKEDFRYRSAHSGDVLYELLQHILKQRK ... 8.09
I48A-A93D-PNT domain (domain or fragment, human, UniProt P41212 40-125, looked up, ETV6 PNT domain, human; source: E. coli BL21 (λDE3), purified (Ni-NTA, thrombin cleavage); not shown: His6, N-terminal, cleaved) ALRMEEDSARLPAHLRLQPIYWSRDDVAQWLKWAENEFSLRPIDSNTFEMNGKDLLLLTKEDFRYRSPHSGDVLYELLQHILKQRK ... 7.92

Let us examine a further case.
Task: Which value of pKd has been reported for E76A-A93D-PNT domain (domain or fragment, human, UniProt P41212 40-125, looked up, ETV6 PNT domain, human; source: E. coli BL21 (λDE3), purified (Ni-NTA, thrombin cleavage); not shown: His6, N-terminal, cleaved) ALRMEEDSIRLPAHLRLQPIYWSRDDVAQWLKWAENAFSLRPIDSNTFEMNGKDLLLLTKEDFRYRSPHSGDVLYELLQHILKQRK in the records?
Result: 8.00
